Provenance of the data: ChEMBL document CHEMBL5712903

Assay Name: Antiproliferative activity against human EPN10 cells assessed as reduction in cell viability incubated for 144 hrs by MTT assay
Assay type: functional, cell-based
Condition Description: EPN10, 144 h
pIC50: −log10 of the molar value.
Quantity Measured: pIC50

Nc1ncn([C@H]2C[C@H](O)[C@@H](CO)O2)c(=O)n1 [DECITABINE]
≤ 7.30

###

Assay Name: Antiproliferative activity against human DKFZ-EP1 cells assessed as reduction in cell viability incubated for 144 hrs by MTT assay
Assay type: functional, cell-based
Condition Description: DKFZ-EP1, 144 h
Quantity Measured: IC50

Nc1ncn([C@H]2C[C@H](O)[C@@H](CO)O2)c(=O)n1 [DECITABINE]
≥ 0.05 µM
